test: solvent given as SMILES; conditions: in CO
The entries below come with measured absorption maximum values attached.

Compound: Cc1ccccc1/C(C#N)=C/c1ccc(N(C)C)cc1
Unit label: nm
absorption maximum: 374
--
Compound: O=S(=O)([O-])c1ccc(O)c2ccccc12
Unit label: nm
absorption maximum: 321
--
Compound: CCOC(=O)/C(C#N)=C/c1cc2c3ccccc3n(C)c2cc1OC
Unit label: nm
absorption maximum: 415
--
Compound: Cc1ccccc1C1=C2C=c3c(oc4ccccc34)=[N+]2[B-](F)(F)n2c1cc1c3ccccc3oc12
Unit label: nm
absorption maximum: 580.5
--
Compound: O=[N+]([O-])c1ccc(O)cc1
Unit label: nm
absorption maximum: 309
--
Compound: O=S(=O)(/N=c1\oc2cccc3c4c(-c5ccccc5)oc5cccc(c(c1-c1ccccc1)c23)c54)C(F)(F)F
Unit label: nm
absorption maximum: 456
--
Compound: C(=C\c1nc2ccccc2s1)/c1ccc(-c2nc3c4cccnc4c4ncccc4c3[nH]2)cc1
Unit label: nm
absorption maximum: 375
--
Compound: CN1/C(=C/C=C(/C=C/C2=[N+](C)c3ccccc3C2(C)C)c2cc(F)cc(F)c2)C(C)(C)c2ccccc21
Unit label: nm
absorption maximum: 633
--
Compound: O=[N+]([O-])c1ccc(F)cc1C1CC(c2cccc3ccccc23)=NN1c1ccccc1 (stereo not given)
Unit label: nm
absorption maximum: 372
--
Compound: Cc1c(C2=[N+]3C(=Cc4c(C)c5ccccc5n4[B-]3(F)F)c3ccccc32)[nH]c2ccccc12
Unit label: nm
absorption maximum: 598

* * *

assay: solvent given as SMILES; settings: in ClCCl

Compound: COc1ccc2nc(N)sc2c1
absorption maximum [nm]: 305

Compound: C(=C\c1cc(-c2ccc3ccccc3c2)c(/C=C/c2ccc(N(c3ccccc3)c3ccccc3)cc2)cc1-c1ccc2ccccc2c1)/c1ccc(N(c2ccccc2)c2ccccc2)cc1
absorption maximum [nm]: 419

Compound: c1ccc2c(c1)ccc1ccc3c(c12)-c1c(ccc2ccc4ccccc4c12)C3
absorption maximum [nm]: 400

Compound: ClP1(Cl)=N[P@](Cl)(Oc2ccc3ccc4cccc5ccc2c3c45)=N[P@@](Cl)(Oc2ccc3ccc4cccc5ccc2c3c45)=N1
absorption maximum [nm]: 343

Compound: CCCCOc1ccc(-c2oc3cc4n(c3c2-c2ccc(OCCCC)cc2)[B-](F)(F)[N+]2=Cc3cc5oc(-c6ccc(OCCCC)cc6)c(-c6ccc(OCCCC)cc6)c5n3[B-](F)(F)[N+]2=C4)cc1
absorption maximum [nm]: 606

Compound: C(=C\c1cccc2ccccc12)/c1ccc(Oc2ccc3ccccc3c2-c2c(Oc3ccc(/C=C/c4cccc5ccccc45)cc3)ccc3ccccc23)cc1
absorption maximum [nm]: 334

Compound: CCCCCCCCCCCCc1ccc(-c2cc(C)[o+]c(C)c2)cc1
absorption maximum [nm]: 370

Compound: Cc1c(C2=[N+]3C(=Cc4c(C)c5ccccc5n4[B-]3(F)F)c3ccccc32)[nH]c2ccccc12
absorption maximum [nm]: 611

Compound: CN(C)c1ccc(N2c3sc4ccccc4c3Sc3c2sc2ccccc32)cc1
absorption maximum [nm]: 430

Compound: CCN(CC)c1ccc(-c2nc3c(c4c2-c2ccc(C#N)cc2CC4)-c2ccc(C#N)cc2CC3)cc1
absorption maximum [nm]: 363

Compound: Cc1cc(O)c(C(=O)/C=C/c2ccc(Cl)cc2Cl)c(=O)o1
absorption maximum [nm]: 350

Compound: CC(C)[Si](C#Cc1c2cc3ccccc3cc2c(C#C[Si](C(C)C)(C(C)C)C(C)C)c2cc3ccccc3cc12)(C(C)C)C(C)C
absorption maximum [nm]: 643

Compound: O=C1c2ccccc2C2=Nc3ccc4ccccc4[n+]3[B-](F)(F)N12
absorption maximum [nm]: 387

Compound: O=C1c2ccccc2C(=O)N1c1ccc(Cn2cncn2)cc1
absorption maximum [nm]: 294

Compound: COC(=O)C(Cc1ccc2oc(-c3ccc(N(C)C)cc3)nc2c1)NC(=O)OC(C)(C)C (configuration not stated)
absorption maximum [nm]: 344.49

Compound: CCN1c2ccc(/C=N/Nc3ccccn3)cc2Sc2cc(-c3ccc(OC)cc3)ccc21
absorption maximum [nm]: 383

Compound: CCCCN1C(=O)C2=C(c3ccc(-c4ccc5c(c4)C(C)(C)c4ccccc4-5)cc3)NC(=O)C2=C1c1ccc(-c2ccc3c(c2)C(C)(C)c2ccccc2-3)cc1
absorption maximum [nm]: 497

* * *

assay: solvent given as SMILES; conditions: in CCOC(C)=O
Use 400 nm as the dividing line for absorption maximum, with the line itself on the rule met side and lower values as rule not met.

Compound structure: O=c1c2ccccc2n2c3ccccc3c(=O)c3cc(-c4ccccc4)cc1c32
Cat: rule met
--
Compound structure: O=C1CCCc2c1[nH]c1cc3c(cc21)OCO3
Cat: rule not met
--
Compound structure: CC(C)(C)c1ccc(-c2nc3c4ccc(-c5ccccc5)cc4c4cc(-c5ccccc5)ccc4c3n2-c2ccc(C(C)(C)C)cc2)cc1
Cat: rule not met
--
Compound structure: O=C(c1ccc(N(c2ccccc2)c2ccccc2)cc1)[C@H]1[C@H](c2cccs2)C[C@](O)(c2ccccn2)C[C@]1(O)c1ccccn1
Cat: rule not met
--
Compound structure: CC1=[N+]2C(=C(c3ccc(C#N)cc3)c3ccc(C)n3[B-]2(F)F)C=C1
Cat: rule met
--
Compound structure: CCn1c(-c2ccc(-c3cccc4ccccc34)cc2)c(-c2ccc3ccccc3c2)c(-c2ccc3ccccc3c2)c1-c1ccc(-c2cccc3ccccc23)cc1
Cat: rule not met
--
Compound structure: CCOC(=O)C(C(=O)OCC)C1=[N+]2C(=C(c3ccc(C)cc3)c3ccc(C(C(=O)OCC)C(=O)OCC)n3[B-]2(F)F)C=C1
Cat: rule met
--
Compound structure: COC(=O)c1ccc(/N=N/c2cc3c4c(c2)CCCN4CCC3)cc1
Cat: rule met
--
Compound structure: CN(C)c1ccc2cc3c(cc2c1)OCCN=C3
Cat: rule not met

* * *

The entries below come with measured absorption maximum values attached.
assay: solvent given as SMILES; conditions: in CC1CCCCC1
Recorded metric: absorption maximum (nm)

Molecule: COC(=O)C(Cc1ccc2oc(-c3ccncc3)nc2c1)NC(=O)OC(C)(C)C (stereo not drawn)
Unit label: nm
Reported: 307.12

Molecule: c12c3c4c5c1c1c6c7c2c2c8c3c3c9c4c4c%10c5c5c1c1c6c6c%11c%12c%13c%14c%15c%16c%17c%14c%14c%18c%13c%11c1c1c5c%10c5c(c%14c%10c%17c%11c%13c%16c%14c%16c%15c%12c%12c%16c(c2c7c%126)c2c8c3c(c%13c%142)c2c9c4c5c%10c%112)c%181
Unit label: nm
Reported: 470

Molecule: C(=C\c1c2ccccc2cc2ccccc12)/c1cnc2ccccc2c1
Unit label: nm
Reported: 386

* * *

The entries below come with measured absorption maximum values attached.
experiment: solvent given as SMILES; settings: in O
Recorded metric: absorption maximum (nm)

Compound structure: C[n+]1ccc(/C=C/c2ccc(N(c3ccccc3)c3ccc(/C=C/c4cc[n+](C)cn4)cc3)cc2)nc1
Recorded metric: absorption maximum
Unit label: nm
Reported: 525

Compound structure: CC1(C)C(/C=C/C=C/C=C/C=C2\N(CCCCS(=O)(=O)[O-])c3ccc4ccccc4c3C2(C)C)=[N+](CCCCS(=O)(=O)[O-])c2ccc3ccccc3c21
Recorded metric: absorption maximum
Unit label: nm
Reported: 780

Compound structure: CN1CCN(CCCN2c3ccccc3Sc3ccc(C(F)(F)F)cc32)CC1
Recorded metric: absorption maximum
Unit label: nm
Reported: 308

Compound structure: CN(C)c1ccc2c(c1)[Si](C)(C)C1=CC(=[N+](C)C)C=CC1=C2
Recorded metric: absorption maximum
Unit label: nm
Reported: 634

Compound structure: CC1(C)C(=O)C=Cc2ccc(O)cc21
Recorded metric: absorption maximum
Unit label: nm
Reported: 341

Compound structure: N=C(N)N
Recorded metric: absorption maximum
Unit label: nm
Reported: 265

Compound structure: Nc1ccc2ccc(O)cc2c1
Recorded metric: absorption maximum
Unit label: nm
Reported: 332

Compound structure: CN(C)c1ccc2[c](c1)[Ge]([CH3])([CH3])[C]1=CC(=[N+](C)C)C=CC1=C2
Recorded metric: absorption maximum
Unit label: nm
Reported: 621

Compound structure: N#Cc1c(N2CCCCC2)cc(-c2cccs2)c2c1-c1cccc3cccc-2c13
Recorded metric: absorption maximum
Unit label: nm
Reported: 458

Compound structure: CC[n+]1c(-c2ccccc2)c2cc(NC(=O)N[C@H]3C[C@@H]([NH3+])[C@H](O)[C@@H](O)[C@@H]3O)ccc2c2ccc(NC(=O)N[C@@H]3C[C@H]([NH3+])[C@@H](O)[C@@H](O)[C@H]3O)cc21
Recorded metric: absorption maximum
Unit label: nm
Reported: 438

* * *

test: solvent given as SMILES; conditions: in O

Compound: CCN(CC)c1ccc2c(-c3ccc(S(=O)(=O)O)cc3S(=O)(=O)[O-])c3ccc(=[N+](CC)CC)cc-3oc2c1
absorption maximum [nm]: 554

Compound: C=CC1CN2CCC1CC2[C@H](O)c1ccnc2ccc(OC)cc12 (stereo not given in full)
absorption maximum [nm]: 347

Compound: O=C(O)c1cc(O)c(O)c(O)c1
absorption maximum [nm]: 258

Compound: COc1ccc(OC)c(C2=C3C=CC(=[N+](C)C)C=C3[Si](C)(C)c3cc(N(C)C)ccc32)c1
absorption maximum [nm]: 651

Compound: O=C(O)C1=C/C(=C/C=[NH+]/c2ccc3c(C(F)(F)F)cc(=O)oc3c2)CC(C(=O)O)N1 (stereo not given)
absorption maximum [nm]: 519

Compound: N#Cc1ccc2[nH]ccc2c1
absorption maximum [nm]: 275

Compound: CC[n+]1c(-c2ccccc2)c2cc(NC(N)=O)ccc2c2ccc(N)cc21
absorption maximum [nm]: 463

Compound: O=c1c2cc(S(=O)(=O)O)ccc2[nH]c2ccc(S(=O)(=O)O)cc12
absorption maximum [nm]: 396

Compound: Cc1nc(-c2ccccc2)c2ccccn12
absorption maximum [nm]: 338

Compound: Cc1cc(O)c(C(C)C)cc1/N=C/c1ccc(C(F)(F)F)cc1
absorption maximum [nm]: 358
